Biological target: ERα (Homo sapiens)
Sequence: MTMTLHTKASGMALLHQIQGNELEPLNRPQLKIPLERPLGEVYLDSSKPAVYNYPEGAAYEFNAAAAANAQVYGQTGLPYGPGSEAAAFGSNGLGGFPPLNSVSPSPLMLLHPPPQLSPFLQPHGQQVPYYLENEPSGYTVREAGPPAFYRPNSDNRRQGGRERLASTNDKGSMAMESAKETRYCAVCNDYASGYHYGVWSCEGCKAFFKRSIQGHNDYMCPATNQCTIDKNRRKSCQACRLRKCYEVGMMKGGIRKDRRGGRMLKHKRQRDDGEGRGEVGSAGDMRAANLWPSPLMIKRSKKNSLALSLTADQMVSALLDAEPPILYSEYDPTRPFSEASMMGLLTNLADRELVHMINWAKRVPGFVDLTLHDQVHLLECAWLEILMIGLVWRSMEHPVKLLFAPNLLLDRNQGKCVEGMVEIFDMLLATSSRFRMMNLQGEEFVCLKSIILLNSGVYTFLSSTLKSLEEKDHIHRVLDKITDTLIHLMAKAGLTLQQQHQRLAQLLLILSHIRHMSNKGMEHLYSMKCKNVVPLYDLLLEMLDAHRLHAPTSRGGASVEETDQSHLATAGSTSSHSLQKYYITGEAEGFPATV
Assay: EMSA
Details: EMSA competition
property-name: pKd
Numbers only, as −log10 of the molar value.

Query string: Reported pKd for GGTCANNNTGACC (double strand) [consensus ERE] : what is it?
Result string: 9.59
